- assayed system: Recombinant human FcRn (FcRn alpha and beta2-microglobulin) (human, UniProt P55899 24-290; P61769 21-119)
- Sequence (P55899 24-290, chain 1 of 2): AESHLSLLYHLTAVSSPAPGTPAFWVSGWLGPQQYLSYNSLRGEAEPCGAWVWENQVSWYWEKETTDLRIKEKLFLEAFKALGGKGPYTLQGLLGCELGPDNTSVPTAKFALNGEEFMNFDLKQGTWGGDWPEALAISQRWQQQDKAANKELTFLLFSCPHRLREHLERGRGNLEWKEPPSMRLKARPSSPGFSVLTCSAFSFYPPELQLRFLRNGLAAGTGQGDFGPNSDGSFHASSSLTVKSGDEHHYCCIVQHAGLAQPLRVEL
- Sequence (P61769 21-119, chain 2 of 2): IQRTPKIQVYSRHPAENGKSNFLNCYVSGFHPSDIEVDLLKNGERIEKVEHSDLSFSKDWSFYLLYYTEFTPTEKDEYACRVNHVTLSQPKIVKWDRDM
- experiment: SPR; produced in HEK
endpoint name: pKd
Remember the convention: pKd equals -log10 of concentration in molar.

For T5A-74L (E294A/N315D/A330V/N361D/A378V/N434Y) Fc fragment (other) DKTHTCPPCPAPELLGGPSVFLFPPKPKDTLMISRTPEVTCVVVDVSHEDPEVKFNWYVDGVEVHNAKTKPREAQYNSTYRVVSVLTVLHQDWLDGKEYKCKVSNKALPVPIEKTISKAKGQPREPQVYTLPPSRDELTKDQVSLTCLVKGFYPSDIVVEWESNGQPENNYKTTPPVLDSDGSFFLYSKLTVDKSRWQQGNVFSCSVMHEALHYHYTQKSLSLSPGK , what is its reported pKd? 7.42
